The origin of these recorded values is PubChem BioAssay (NCI).

- System: SNB-19 CNS
- Test Protocol: NCI-60 one-dose screen, 48 h (100 = growth as untreated, 0 = no growth, -100 = all killed)
- Experimental Context: 10 µM
- Protocol: Growth inhibition of the SNB-19 human tumor cell line is measured as a screen for anti-cancer activity. Cells are grown in 96 well plates and exposed to the test compound for 48 hours. Compounds are tested at a single concentration, which is 10^-5 M for most compounds. The reported endpoint is percent growth (GI% or GIPRCNT), where numbers from 0 - 100% represent growth inhibition, and numbers from -100% - 0 represent cell death. For example, a value of 40 represents 60% growth inhibition. […]
About 83,000 compounds went through this panel and 20% of them were active in at least one assay; those are over-represented in the sample as a whole.
Known growth of a selection of compounds
Report only the number, with the unit % understood.

CSc1cc(SC)ncn1; 91
CC(C)(Cl)CCC1=C(Cl)C(=O)c2ccccc2C1=O; 89

Moving on to the next compound.
Query string: Requested field: growth. Item: CC1CN(Cc2ccccc2)C(=O)NC1=O (stereo not drawn)
Result string: 92

----------
- System: RXF 393 renal
- Test Protocol: NCI-60 one-dose screen, 48 h (100 = growth as untreated, 0 = no growth, -100 = all killed)
- Experimental Context: 10 µM
This is part of a sample that, as a whole, favours compounds with a hit. Of some 83,000 tested, about 20% had one in any assay.
Threshold-based label: growth under 80% gives Satisfied, growth not under 80% gives Not satisfied.

Before answering, review these 5 worked examples.
CC/C(=C(/c1ccc(OCCN(C)C)cc1)c1ccc(OC(=O)CCCCC(=O)c2c(C)[nH]c(/C=C3\N=C(c4ccc[nH]4)C=C3OC)c2C)cc1)c1ccccc1; Satisfied
COc1ccc(-c2nc3sc(-c4ccccc4)c(-c4ccccc4)n3c2/C=C/C(=O)c2ccccn2)cc1; Not satisfied
Cc1cccc2c1O/C(=C\c1ccc([N+](=O)[O-])o1)C2=O; Satisfied
Clc1ccccc1N=Cc1ccc2c(c1)OCO2; Not satisfied
N#CCCN1C/C(=C/c2ccccc2)C(=O)/C(=C/c2ccccc2)C1; Satisfied

Query string: Please check: growth for CCCCCCCCCCCCCCCCN(C(C)c1ccccc1)S(=O)(=O)c1ccc(OC)c(N)c1 (stereo not drawn) , strictly under 80% or not?
Result string: Not satisfied

Query string: Find out if reported growth for N=C(N)c1ccc(-c2ccc(-c3cccs3)o2)cc1 is less than 80%
Result string: Satisfied

Query string: Please state whether growth is below 80% for COc1ccc(OC)c(/C=C/c2nnc(Nc3ccc(Cl)cc3)o2)c1
Result string: Satisfied

----------
Measured growth of individual entries
- Tested on: MDA-MB-435 melanoma
- Test Protocol: NCI-60 one-dose screen, 48 h (100 = growth as untreated, 0 = no growth, -100 = all killed)
- Experimental Context: 10 µM
About 83,000 compounds went through this panel and 20% of them were active in at least one assay; those are over-represented in the sample as a whole.
API: value field is a number in %; no unit string.

These recorded examples may help you get a feel for the data.
N=c1nc(N)ncn1-c1ccccc1; 107
N#Cc1ncc(-c2ccc(C(F)(F)F)cc2)c(NCc2cc(C(F)(F)F)cc(C(F)(F)F)c2)n1; 12.2
COc1ccc2c(c1)C(=O)c1c-2c(OCCN(C)C)nc2ccccc12; 33.3
COc1cc(-c2nn3c(/C=C4/C(=O)Nc5ccccc54)c(-c4ccc(C)cc4)nc3s2)cc(OC)c1OC; 33.6
O=C(c1ccc(Cl)cc1Cl)N1CCOCC1; 104

Query string: Requested field: growth. Item: CCOC(=O)C(=Cc1ccc(Br)cc1)C(=O)OCC
Result string: -4.37

Query string: Data request, read-out growth, for COc1ccc(/C(=C2/O[C@@H]([C@H]3COC(C)(C)O3)[C@H]3OC(C)(C)O[C@@H]23)c2cc(OC)c(OC)c(OC)c2)cc1O
Result string: -10.2

Query string: Dear colleague, I am looking for the recorded growth of the following compound: N#CCCN1C/C(=C/c2ccc(Br)cc2)C(=O)/C(=C/c2ccc(Br)cc2)C1
Result string: -43.3

Query string: What does the record list as growth for Cc1ncc(-c2ccoc2)c(NC2CCCCCC2)n1 ?
Result string: 110

Query string: // query growth value for entry CCN(CC)CCOc1nc2ccccc2c2c1-c1ccc(OC)cc1C2=O
Result string: -6.62

Query string: State the recorded growth for this entry: O=[P@@]1(c2ccccc2)O[C@H](COCc2ccccc2)[C@@H](OCc2ccccc2)[C@H](OCc2ccccc2)[C@H]1O
Result string: 95.6

Query string: Look up growth for this compound: CC(=O)/C(=C/c1ccccc1)C(=O)CC(C)C
Result string: 54.3

Query string: Please give the measured growth for this compound: C#Cc1ccc(-n2c(/C=C/c3ccc(Cl)c(F)c3)nc3ncccc3c2=O)cc1
Result string: -3.46

Query string: Returns the measured growth for the input compound. Input: N#Cc1cccc(OCc2nc(N)nc(N)c2-c2ccc(Cl)c(Cl)c2)c1
Result string: 21.3

Query string: Which growth is reported for this compound? CC(C)=CCc1cc(O)cc2c1OC(C=C(C)C)C1=C2C(=O)C2=C(C1=O)S(=O)(=O)CCN2 (centres undefined)
Result string: -68.3

Query string: Quick one: growth of COc1cc(C2CC(c3ccc(Nc4ccnc5cc(Cl)ccc45)cc3)=NN2c2ccc(Cl)cc2)cc(OC)c1OC (centres undefined) ?
Result string: 8.05

Query string: Given C=C(C(=O)c1ccccc1)C(NC(C)(C)C)c1ccccc1 (centres undefined) , state its recorded growth.
Result string: 7.63

Query string: Entry COc1ccc(-c2nc3sc(-c4ccc(OC)cc4)c(-c4ccc(OC)cc4)n3c2/C=C/c2ccc(C(C)C)cc2)cc1 has what growth?
Result string: 98.7

Query string: Given the entry COc1cc(Cl)cc(-c2nn(-c3cccc(NC(=O)Nc4cc(C(F)(F)F)cc(C(F)(F)F)c4)c3)cc2-c2ccncc2)c1 , report its measured growth.
Result string: -19.5

Query string: Given the entry CN1CCC2(CC1)NC(=O)c1c(c3ccc(Cl)c(Cl)c3n1C)C2C#N (centres undefined) , report its measured growth.
Result string: 49.2

Query string: // lookup growth for COc1ccc(Nc2cc(C)nc(NCCCNc3ccnc4cc(Cl)ccc34)n2)cc1
Result string: -92.4

Query string: Data request, read-out growth, for COc1ccc(-c2nn(-c3cccc(NC(=O)c4ccc(Cl)c(Cl)c4)c3)cc2-c2ccncc2)cc1Cl
Result string: 24.8

Query string: Please give the measured growth for this compound: O=C1/C(=C\c2ccc(Cl)cc2)CN(C(=O)c2ccccc2)C/C1=C\c1ccc(Cl)cc1
Result string: -18.1

Query string: Can you share its growth? I mean this compound: CN1CCCNc2c(c(=O)c2=O)NCCCN(C)CCCNc2c(c(=O)c2=O)NCCCN(C)CCCNc2c(c(=O)c2=O)NCCCN(C)CCCNc2c(c(=O)c2=O)NCCCN(C)CCCNc2c(c(=O)c2=O)NCCCN(C)CCCNc2c(c(=O)c2=O)NCCCN(C)CCCNc2c(c(=O)c2=O)NCCC1
Result string: 21.1

Query string: GET /values?readout=growth&item= COc1ccc(-c2nc(-c3nc4ccc(OC)cc4[nH]3)cc3c2[nH]c2ccccc23)cc1
Result string: 39.2

Query string: Request the reported growth associated with COc1ccc(C2=Nc3c(C)nn(-c4ccccc4)c3NC(c3ccc(Oc4ccnc5cc(Cl)ccc45)c(OC)c3)C2)cc1 (centres undefined)
Result string: 80.4

Query string: Value lookup for growth; key = COc1ccccc1/C=C/C(=O)c1ccccc1
Result string: 70.7

Query string: Given Cc1cc(N(CCCNc2ccnc3cc(Cl)ccc23)Cc2ccc3c(c2)OCO3)nc(N2CCOCC2)n1 , state its recorded growth.
Result string: -13.6

Query string: Report growth for COc1cc(/C=N/NC(=O)c2ccccc2Nc2ccnc(C(F)(F)F)c2)ccc1O please.
Result string: 106
